- subject_of_test: Dual specificity protein kinase CLK2 (Homo sapiens)
- test_settings: at 1 µM
measure: residual activity (%)
Return type: number; implicit unit %.

Look over these answered cases.
INSERT INTO assay_data (entry_smiles, measured_result) VALUES
  ('O=C(Nc1cccc(Nc2nccc(Nc3cccc(C(F)(F)F)c3)n2)c1)C1CC1', 71),
  ('c1ccc(-c2n[nH]c3c2oc2ccccc23)cc1', 91),
  ('N#C/C(=C(\N)Sc1ccc(N)cc1)c1ccccc1C(F)(F)F', 97),
  ('Oc1n[nH]c2nnc(-c3c(-c4ccccc4)nn4ccccc34)cc12', 114),
  ('c1ccc2c(-c3ccncc3)c[nH]c2c1', 112);

Next:
[ask] I'd like to know its residual activity. The molecule in question is CCC(=O)Nc1ccc2ncnc(Nc3cccc(Br)c3)c2c1
[reply] 125

From: ChEMBL document CHEMBL2218924
